assay: Wavelength vs. absorbance of near-infrared absorbing compositions (UV-Vis spectrophotometer); assay type: physicochemical; conditions: THF concentration condition of 10 mg/mL
So I've got a bunch of compounds here, and I need their ANIR (maximum absorbance) values.

Challenge: Write down ANIR (maximum absorbance) measured for item O=C([O][Cu][O]C(=O)C(F)(F)F)C(F)(F)F [Comparative Example 1, reference compound]
Response given: 1.05

Challenge: Write down ANIR (maximum absorbance) measured for item C=C(C)C(=O)OCCOP(=O)(O)[O][Cu][O]C(=O)C(F)(F)F
Response given: 0.66

Challenge: Write down ANIR (maximum absorbance) measured for item Cc1ccc(S(=O)(=O)[O][Cu][O]C(=O)C(F)(F)F)cc1
Response given: 0.70

Challenge: Write down ANIR (maximum absorbance) measured for item O=C([O][Cu][O]P(=O)(Oc1ccccc1)Oc1ccccc1)C(F)(F)F
Response given: 0.85

----------
assay: Wavelength vs. absorbance of near-infrared absorbing compositions (UV-Vis spectrophotometer); assay type: physicochemical; conditions: THF concentration condition of 10 mg/mL
So I've got a bunch of compounds here, and I need their ANIR (maximum absorbance) values.
Please give only the number in your answer, with no unit.

Challenge: Write down ANIR (maximum absorbance) measured for item C=C(C)C(=O)OCCOP(=O)(O)[O][Cu][O]P(=O)(O)OCCOC(=O)C(=C)C [Comparative Example 2, reference compound]
Response given: 0.42

Challenge: Write down ANIR (maximum absorbance) measured for item CCOP(=O)(O)[O][Cu][O]C(=O)C(F)(F)F
Response given: 1.16

Challenge: Write down ANIR (maximum absorbance) measured for item CC(C)OP(=O)(O)[O][Cu][O]C(=O)C(F)(F)F
Response given: 1.04

----------
assay: Wavelength vs. absorbance of near-infrared absorbing compositions (UV-Vis spectrophotometer); assay type: physicochemical; conditions: 10 mg/mL in THF
Give satisfied when the value for A430-565 (average absorbance in a visible light wavelength region) is at least 0.008. Give not satisfied when it is less.

Challenge: Would you say CCOP(=O)(O)[O][Cu][O]C(=O)C(F)(F)F shows A430-565 (average absorbance in a visible light wavelength region) at minimum 0.008?
Response given: satisfied

Challenge: Would you say O=C([O][Cu][O]C(=O)C(F)(F)F)C(F)(F)F [Comparative Example 1, reference compound] shows A430-565 (average absorbance in a visible light wavelength region) at minimum 0.008?
Response given: satisfied

Challenge: Would you say Cc1ccc(S(=O)(=O)[O][Cu][O]C(=O)C(F)(F)F)cc1 shows A430-565 (average absorbance in a visible light wavelength region) at minimum 0.008?
Response given: not satisfied

Challenge: Would you say C=C(C)C(=O)OCCOP(=O)(O)[O][Cu][O]C(=O)C(F)(F)F shows A430-565 (average absorbance in a visible light wavelength region) at minimum 0.008?
Response given: satisfied

Challenge: Would you say C=C(C)C(=O)OCCOP(=O)(O)[O][Cu][O]P(=O)(O)OCCOC(=O)C(=C)C [Comparative Example 2, reference compound] shows A430-565 (average absorbance in a visible light wavelength region) at minimum 0.008?
Response given: not satisfied

Challenge: Would you say O=C([O][Cu][O]P(=O)(Oc1ccccc1)Oc1ccccc1)C(F)(F)F shows A430-565 (average absorbance in a visible light wavelength region) at minimum 0.008?
Response given: not satisfied
